# TARGET_DESC: PBK (human) (UniProt Q96KB5)
# Sequence (Q96KB5 whole entry, looked up): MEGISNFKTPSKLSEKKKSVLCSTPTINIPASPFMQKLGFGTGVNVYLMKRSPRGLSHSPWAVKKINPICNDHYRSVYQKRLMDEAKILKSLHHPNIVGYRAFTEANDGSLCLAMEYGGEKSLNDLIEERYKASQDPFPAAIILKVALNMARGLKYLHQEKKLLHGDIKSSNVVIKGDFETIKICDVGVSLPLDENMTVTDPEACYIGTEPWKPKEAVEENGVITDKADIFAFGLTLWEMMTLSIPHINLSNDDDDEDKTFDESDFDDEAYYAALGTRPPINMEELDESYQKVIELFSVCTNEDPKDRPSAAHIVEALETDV
# EXPERIMENTAL_DETAILS: Caliper, Mobility shift assay off-chip
# SETUP_CONDITIONS: compound 0.02 µM
PROPERTY_LABEL: inhibition (%)
// units = %; emit number, no label

Prompt: Returns the measured inhibition for the input compound. Input: Cc1ccc(Nc2nccc(N(C)c3ccc4c(C)n(C)nc4c3)n2)cc1S(N)(=O)=O
Completion: -3.9

Prompt: Input CNC(=O)c1cc(Oc2ccc(NC(=O)Nc3ccc(Cl)c(C(F)(F)F)c3)cc2)ccn1
Completion: -6

Prompt: Input CNC(=O)c1ccccc1Sc1ccc2c(/C=C/c3ccccn3)n[nH]c2c1
Completion: -7.4

Prompt: Input COc1cc2c(Oc3ccc4[nH]c(C)cc4c3F)ncnc2cc1OCCCN1CCCC1
Completion: 0.1

* * *

# TARGET_DESC: STK38L (human)
# EXPERIMENTAL_DETAILS: Caliper, Mobility shift assay off-chip
# SETUP_CONDITIONS: compound 0.02 µM
inhibition values, listed per item
// units = %; emit number, no label

Known results for compounds:
CNC(=O)c1ccccc1Sc1ccc2c(/C=C/c3ccccn3)n[nH]c2c1 ... -0.1
Cc1ccc(Nc2nccc(N(C)c3ccc4c(C)n(C)nc4c3)n2)cc1S(N)(=O)=O ... -1.5
COc1cc2c(Oc3ccc4[nH]c(C)cc4c3F)ncnc2cc1OCCCN1CCCC1 ... 8.9

API: the following record is the query input.
Prompt: Returns the measured inhibition for the input compound. Input: CNC(=O)c1cc(Oc2ccc(NC(=O)Nc3ccc(Cl)c(C(F)(F)F)c3)cc2)ccn1
Completion: -3.6

* * *

# TARGET_DESC: MAP2K3 (human) (UniProt P46734)
# Sequence (P46734 whole entry, looked up): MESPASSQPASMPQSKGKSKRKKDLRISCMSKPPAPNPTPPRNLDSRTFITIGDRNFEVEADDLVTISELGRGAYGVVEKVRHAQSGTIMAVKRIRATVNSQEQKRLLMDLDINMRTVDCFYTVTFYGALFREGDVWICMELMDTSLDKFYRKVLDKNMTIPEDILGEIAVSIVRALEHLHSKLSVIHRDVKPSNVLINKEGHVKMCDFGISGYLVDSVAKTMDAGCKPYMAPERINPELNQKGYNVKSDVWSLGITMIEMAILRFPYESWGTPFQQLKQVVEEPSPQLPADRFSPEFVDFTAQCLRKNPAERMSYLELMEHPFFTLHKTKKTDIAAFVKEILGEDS
# EXPERIMENTAL_DETAILS: ELISA
# SETUP_CONDITIONS: compound 0.2 µM
PROPERTY_LABEL: inhibition
Record the result as a number with its unit.

Known results for compounds:
CNC(=O)c1cc(Oc2ccc(NC(=O)Nc3ccc(Cl)c(C(F)(F)F)c3)cc2)ccn1 ... 58.5%
CCN(CC)CCNC(=O)c1c(C)[nH]c(/C=C2\C(=O)Nc3ccc(F)cc32)c1C ... -2%
COc1cc2c(Oc3ccc4[nH]c(C)cc4c3F)ncnc2cc1OCCCN1CCCC1 ... -2.9%

API: the following record is the query input.
Prompt: Look up inhibition with MAP2K3 (human) (UniProt P46734) for this compound: Cc1ccc(Nc2nccc(N(C)c3ccc4c(C)n(C)nc4c3)n2)cc1S(N)(=O)=O
Completion: 5.5%

* * *

# TARGET_DESC: MAPKAPK2 (human)
# EXPERIMENTAL_DETAILS: Caliper, Mobility shift assay off-chip
# SETUP_CONDITIONS: compound 0.2 µM
PROPERTY_LABEL: inhibition (%)
// units = %; emit number, no label

CNC(=O)c1cc(Oc2ccc(NC(=O)Nc3ccc(Cl)c(C(F)(F)F)c3)cc2)ccn1 ... -2

Prompt: Look up inhibition with MAPKAPK2 (human) for this compound: CCN(CC)CCNC(=O)c1c(C)[nH]c(/C=C2\C(=O)Nc3ccc(F)cc32)c1C
Completion: 4

Prompt: Input COc1cc2c(Oc3ccc4[nH]c(C)cc4c3F)ncnc2cc1OCCCN1CCCC1
Completion: -1.5

Prompt: Input Cc1ccc(Nc2nccc(N(C)c3ccc4c(C)n(C)nc4c3)n2)cc1S(N)(=O)=O
Completion: 1.5
